# key: entry, value: inhibition
molecular target: G-protein coupled receptor 55 (Homo sapiens) (UniProt Q9Y2T6); test: GPR55 antagonists blocking LPI-driven arrestin recruitment, primary screen, imaging, U2OS, beta-arrestin-GFP, LPI agonist (AID 2013); settings: U2OS GPR55 beta-arrestin-GFP translocation imaging, LPI antagonism; at 10 µM; stronger effect = higher value;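 also: U2OS cells stably carrying GPR55 and arrestin-GFP stimulated by 5 µM LPI near EC80; imaged beta-arrestin-GFP aggregate spots per cell after agonist stimulation; plate controls were LPI-stimulated DMSO wells for no effect and DMSO wells without LPI for full effect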
Sequence (Q9Y2T6 whole entry, looked up): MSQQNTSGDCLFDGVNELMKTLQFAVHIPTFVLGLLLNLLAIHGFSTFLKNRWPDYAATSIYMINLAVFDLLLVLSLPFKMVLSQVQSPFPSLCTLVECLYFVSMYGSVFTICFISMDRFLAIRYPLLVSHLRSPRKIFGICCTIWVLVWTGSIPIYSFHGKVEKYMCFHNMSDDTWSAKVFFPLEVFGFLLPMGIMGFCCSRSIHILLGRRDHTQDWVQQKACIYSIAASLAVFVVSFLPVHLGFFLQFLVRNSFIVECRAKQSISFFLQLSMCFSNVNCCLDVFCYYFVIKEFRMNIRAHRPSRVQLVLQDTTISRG
Out of some 290,000 compounds screened, about 370 (0.13%) were called active. This excerpt belongs to a sample that is enriched for actives. Results with a measured potency or affinity are listed apart.
measuredQuantity: inhibition (%)

>>> recordednumber("CC(NC(=O)C12CC3CC(CC(C3)C1)C2)c1ccc2c(c1)OCCO2 (stereo unspecified)")
3
>>> recordednumber("Cc1nc2ccccc2c2c1C(=O)N(C(C)C)C2=O")
-5.2
>>> recordednumber("CCN(c1cccc(C)c1)S(=O)(=O)c1ccc2c(c1)oc(=O)n2C")
1.9
>>> recordednumber("O=C(Nc1ccccc1)c1ccccc1NC(=O)C1CCCCC1")
-8.2
>>> recordednumber("CCOC(=O)C1CCCN(S(=O)(=O)c2cc(Br)cc3c2N(C(=O)CC)CC3)C1 (stereo unspecified)")
-0.6
>>> recordednumber("COc1ccc(-c2noc(-c3ccccc3-c3ccccc3)n2)cc1")
10.6
